# TARGET: AMPK complex 1 (containing alpha1beta1gamma1) (Homo sapiens (Human), UniProt Q13131+Q9Y478)
# Sequence (Q13131 whole entry): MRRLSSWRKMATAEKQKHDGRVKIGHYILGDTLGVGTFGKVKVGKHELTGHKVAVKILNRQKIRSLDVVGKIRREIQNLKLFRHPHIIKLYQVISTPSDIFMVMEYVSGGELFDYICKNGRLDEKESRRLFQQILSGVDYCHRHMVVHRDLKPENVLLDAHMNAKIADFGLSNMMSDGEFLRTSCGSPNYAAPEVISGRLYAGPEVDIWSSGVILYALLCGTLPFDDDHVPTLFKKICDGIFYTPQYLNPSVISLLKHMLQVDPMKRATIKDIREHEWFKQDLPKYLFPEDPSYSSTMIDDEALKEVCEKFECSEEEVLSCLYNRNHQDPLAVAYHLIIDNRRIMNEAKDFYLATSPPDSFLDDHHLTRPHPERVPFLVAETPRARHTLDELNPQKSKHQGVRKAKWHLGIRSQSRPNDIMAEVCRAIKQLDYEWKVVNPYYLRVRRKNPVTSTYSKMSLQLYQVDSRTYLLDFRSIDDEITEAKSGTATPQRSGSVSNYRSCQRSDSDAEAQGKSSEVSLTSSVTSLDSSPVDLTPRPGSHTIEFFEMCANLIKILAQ
# Sequence (Q9Y478 whole entry): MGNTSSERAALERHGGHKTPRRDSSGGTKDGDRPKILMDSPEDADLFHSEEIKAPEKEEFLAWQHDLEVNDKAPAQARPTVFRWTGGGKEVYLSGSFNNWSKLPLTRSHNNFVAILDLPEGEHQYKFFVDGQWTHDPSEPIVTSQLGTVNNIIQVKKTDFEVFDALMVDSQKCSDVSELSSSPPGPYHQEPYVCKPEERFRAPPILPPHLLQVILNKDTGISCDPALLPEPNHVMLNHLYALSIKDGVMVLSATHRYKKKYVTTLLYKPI
# Sequence (P54619 whole entry partner): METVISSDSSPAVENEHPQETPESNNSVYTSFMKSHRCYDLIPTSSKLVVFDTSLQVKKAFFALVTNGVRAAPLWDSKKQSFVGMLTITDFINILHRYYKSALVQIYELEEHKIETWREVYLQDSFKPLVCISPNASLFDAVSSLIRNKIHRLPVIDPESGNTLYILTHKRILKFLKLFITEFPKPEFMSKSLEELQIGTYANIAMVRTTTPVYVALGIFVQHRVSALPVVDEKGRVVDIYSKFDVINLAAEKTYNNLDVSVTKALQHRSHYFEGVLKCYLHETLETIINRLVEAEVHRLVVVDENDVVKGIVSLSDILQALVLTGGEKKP
# PROTOCOL: in vitro AMPK activation assay (ADP-Glo Kinase Assay)
# ASSAY_SETUP: AMPK alpha1beta1gamma1, ATP 30 μM, peptide 1 μM, 60 min, room temperature
ENDPOINT: EC50

O=C(O[C@H]1CC[C@@H](c2ccc(-c3nc4[nH]c(O[C@@H]5CO[C@H]6[C@@H]5OC[C@H]6O)nc4cc3Cl)cc2)CC1)N1CCCC1 : 2040 nM
CC(C)OC(=O)N[C@H]1CC[C@@H](c2ccc(-c3nc4[nH]c(O[C@@H]5CO[C@H]6[C@@H]5OC[C@H]6O)nc4cc3Cl)cc2)CC1 : 12 nM
O=C(O[C@H]1CC[C@H](c2ccc(-c3nc4[nH]c(O[C@@H]5CO[C@H]6[C@@H]5OC[C@H]6O)nc4cc3Cl)cc2)CC1)N1CCCC1 : 17 nM

// returns reported EC50 for input O=C(N[C@H]1CC[C@@H](c2ccc(-c3nc4[nH]c(O[C@@H]5CO[C@H]6[C@@H]5OC[C@H]6O)nc4cc3Cl)cc2)CC1)OC1CCOCC1
119 nM

// returns reported EC50 for input O=C(N[C@H]1CC[C@@H](c2ccc(-c3nc4[nH]c(O[C@@H]5CO[C@H]6[C@@H]5OC[C@H]6O)nc4cc3Cl)cc2)CC1)OC1CCCC1
108 nM

====

# PROTOCOL: Metabolic stability: metabolic degradation with pooled human liver microsomes
# Assay type: in vitro ADME
# ASSAY_SETUP: pooled human liver microsomes 1 mg/ml, 37° C., test compound 1 μM, NADPH 1 mM
Each entry below carries its reported t1/2 INVITRO.

CC(C)NC(=O)O[C@H]1CC[C@H](c2ccc(-c3nc4[nH]c(O[C@@H]5CO[C@H]6[C@@H]5OC[C@H]6O)nc4cc3Cl)cc2)CC1 : >2.17 h
O=C(O[C@H]1CC[C@H](c2ccc(-c3nc4[nH]c(O[C@@H]5CO[C@H]6[C@@H]5OC[C@H]6O)nc4cc3Cl)cc2)CC1)N1CCOCC1 : >2.17 h

// returns reported t1/2 INVITRO for input CC(C)OC(=O)N[C@H]1CC[C@@H](c2ccc(-c3nc4[nH]c(O[C@@H]5CO[C@H]6[C@@H]5OC[C@H]6O)nc4cc3Cl)cc2)CC1
>2.17 h

====

# TARGET: AMPK complex 1 (containing alpha1beta1gamma1) (Homo sapiens (Human), UniProt Q13131+Q9Y478)
# PROTOCOL: in vitro AMPK activation assay (ADP-Glo Kinase Assay)
# ASSAY_SETUP: AMPK alpha1beta1gamma1, ATP 30 μM, peptide 1 μM, 60 min, room temperature
With a cut-off of 300 nM, any EC50 strictly below it is called true (1); any EC50 meeting it or above is called false (0).

CCOC(=O)NC1CCN(c2ccc(-c3nc4[nH]c(O[C@@H]5CO[C@H]6[C@@H]5OC[C@H]6O)nc4cc3Cl)cc2)CC1 : true (1)
CC(C)NC(=O)OC1CCN(c2ccc(-c3nc4[nH]c(O[C@@H]5CO[C@H]6[C@@H]5OC[C@H]6O)nc4cc3Cl)cc2)CC1 : false (0)
O=C(O[C@H]1CC[C@@H](c2ccc(-c3nc4[nH]c(O[C@@H]5CO[C@H]6[C@@H]5OC[C@H]6O)nc4cc3Cl)cc2)CC1)N1CCOCC1 : false (0)
CCNC(=O)O[C@H]1CC[C@@H](c2ccc(-c3nc4[nH]c(O[C@@H]5CO[C@H]6[C@@H]5OC[C@H]6O)nc4cc3Cl)cc2)CC1 : true (1)

Would you kindly look at the next entry?
Decide: EC50 of CC(C)OC(=O)NC1CCN(c2ccc(-c3nc4[nH]c(O[C@@H]5CO[C@H]6[C@@H]5OC[C@H]6O)nc4cc3Cl)cc2)CC1 strictly below 300 nM?
true (1)
